System: healthy volunteers
procedure.summary: Allergic skin test (intradermal injection, flare size) in healthy volunteers
Format: in vivo, human
condition: positive donors / donors tested, healthy volunteers
No end group written: not given here.
S. T positive rate for assorted sequences

Worked set:
chain.sequence: AYDFLYNYL [SART2161, AYDFLYNYL]
S. T positive rate: 0/42
//
chain.sequence: AYIDFEMKI [SART3315, AYIDFEMKI]
S. T positive rate: 18/41
//
chain.sequence: VYDYNCHVDL [SART3109, VYDYNCHVDL]
S. T positive rate: 7/42
//
chain.sequence: DYPSLSATDI [ART475, DYPSLSATDI]
S. T positive rate: 1/41
//
chain.sequence: KFHRVIKDF [CypB84, KFHRVIKDF]
S. T positive rate: 40/42

Dear colleague, I am looking for the recorded S. T positive rate of the following sequence: SYTRLFLIL [SART2899, SYTRLFLIL]
10/41

# query: S. T positive rate of entry AFLRHAAL [ART413, AFLRHAAL]
39/41

====

We begin with a simple list: items and their reported positive skin reaction, percent of healthy volunteers.
System: healthy volunteers
procedure.summary: Allergic skin test (intradermal injection, flare size) in healthy volunteers
Format: in vivo, human
condition: healthy volunteers
No end group written: not given here.
Unit % implied. Number only.

Value wanted: positive skin reaction, percent of healthy volunteers (healthy volunteers) of entry KFHRVIKDF [CypB84, KFHRVIKDF]
95

Please tell me: positive skin reaction, percent of healthy volunteers of VYDYNCHVDL [SART3109, VYDYNCHVDL] , system healthy volunteers?
17

Please tell me: positive skin reaction, percent of healthy volunteers of SYTRLFLIL [SART2899, SYTRLFLIL] , system healthy volunteers?
24

Any idea what positive skin reaction, percent of healthy volunteers came out for AFLRHAAL [ART413, AFLRHAAL] on healthy volunteers?
95

Can you look up positive skin reaction, percent of healthy volunteers on healthy volunteers for AYIDFEMKI [SART3315, AYIDFEMKI] ?
44

====

Tested on: healthy volunteers
procedure.summary: Allergic skin test (intradermal injection, flare size) in healthy volunteers
Assay type: in vivo, human
condition: among 41 or 42 cases of healthy volunteers
No end group written: not given here.
readout.type: positive skin reaction, number of cases (cases)
Response body: numeric value in cases, unit text excluded.

chain.sequence: SYTRLFLIL [SART2899, SYTRLFLIL]
test.system: healthy volunteers
readout.type: positive skin reaction, number of cases
result.number: 10

chain.sequence: AYIDFEMKI [SART3315, AYIDFEMKI]
test.system: healthy volunteers
readout.type: positive skin reaction, number of cases
result.number: 18

chain.sequence: VYDYNCHVDL [SART3109, VYDYNCHVDL]
test.system: healthy volunteers
readout.type: positive skin reaction, number of cases
result.number: 7

--- query ---
So what does the record say about positive skin reaction, number of cases for KFHRVIKDF [CypB84, KFHRVIKDF] ?
40
